B1: EHEE_rd3_0053 (parent)
chain: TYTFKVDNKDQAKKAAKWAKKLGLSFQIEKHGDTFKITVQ

variants of: B1; experiment: folding stability dG (cDNA display proteolysis); higher = more stable; conditions: PBS, room temperature
Each entry gets Not met if its folding stability dG stays under 2 kcal/mol, and Met if its folding stability dG is 2 kcal/mol or above.

Asked: Decide: folding stability dG of K5Y >= 2 kcal/mol?
Given back: Met

Asked: Decide: folding stability dG of I37M >= 2 kcal/mol?
Given back: Not met

Asked: Decide: folding stability dG of V39Q >= 2 kcal/mol?
Given back: Not met

Asked: Decide: folding stability dG of L24A >= 2 kcal/mol?
Given back: Not met

Asked: Decide: folding stability dG of W18D >= 2 kcal/mol?
Given back: Not met

Asked: Decide: folding stability dG of Y2D >= 2 kcal/mol?
Given back: Not met

Asked: Decide: folding stability dG of L24I >= 2 kcal/mol?
Given back: Not met

Asked: Decide: folding stability dG of K17F >= 2 kcal/mol?
Given back: Met

Asked: Decide: folding stability dG of F35A >= 2 kcal/mol?
Given back: Not met

Asked: Decide: folding stability dG of D7W >= 2 kcal/mol?
Given back: Met

Asked: Decide: folding stability dG of A15H >= 2 kcal/mol?
Given back: Not met

Asked: Decide: folding stability dG of I28K >= 2 kcal/mol?
Given back: Not met

Asked: Decide: folding stability dG of A12Q >= 2 kcal/mol?
Given back: Not met

Asked: Decide: folding stability dG of T38Q >= 2 kcal/mol?
Given back: Not met

Asked: Decide: folding stability dG of Q40V >= 2 kcal/mol?
Given back: Met

Asked: Decide: folding stability dG of T38A >= 2 kcal/mol?
Given back: Not met

Asked: Decide: folding stability dG of H31E >= 2 kcal/mol?
Given back: Met

Asked: Decide: folding stability dG of K21N >= 2 kcal/mol?
Given back: Met

Asked: Decide: folding stability dG of Q11E >= 2 kcal/mol?
Given back: Met

Asked: Decide: folding stability dG of A19I >= 2 kcal/mol?
Given back: Met

Asked: Decide: folding stability dG of L22H >= 2 kcal/mol?
Given back: Met
